Tested on: U2OS
Assay: Multiplex assay against U2OS
Assay type: toxicity, cell-based
Settings: human, 24 h, 10 µM, compound concentration 10 uM, replicate 1
Exercise: for every item that follows, state its recorded Population Tubulin-Different-Phenotype (%).
Give your result in % as a bare value.

**Query** Given the compound CN1CCN(c2nc3cc(C(F)(F)F)ccc3n3cccc23)CC1.O=C(O)/C=C\C(=O)O.O=C(O)/C=C\C(=O)O , what is its reported Population Tubulin-Different-Phenotype (%)?
**Result** 14

**Query** Given the compound Cc1ccc(/C(=C\CN2CCCC2)c2ccccn2)cc1 [TRIPROLIDINE] , what is its reported Population Tubulin-Different-Phenotype (%)?
**Result** 8

**Query** Given the compound CNC[C@H](O)c1ccc(O)c(O)c1 [EPINEPHRINE] , what is its reported Population Tubulin-Different-Phenotype (%)?
**Result** 6

**Query** Given the compound Cc1ccc(F)cc1C(=O)Nc1ccc(C(=O)N2Cc3cccn3Cc3ccccc32)c(Cl)c1 [LIXIVAPTAN] , what is its reported Population Tubulin-Different-Phenotype (%)?
**Result** 75

**Query** Given the compound O=S(=O)(c1ccccc1)c1cnc2c(N3CCNCC3)cccc2c1 [INTEPIRDINE] , what is its reported Population Tubulin-Different-Phenotype (%)?
**Result** 10

**Query** Given the compound CCCn1c(=O)c2[nH]c(C3CCCC3)nc2n(CCC)c1=O , what is its reported Population Tubulin-Different-Phenotype (%)?
**Result** 0

**Query** Given the compound Cl.Clc1ccc2nsnc2c1NC1=NCCN1 [TIZANIDINE HYDROCHLORIDE] , what is its reported Population Tubulin-Different-Phenotype (%)?
**Result** 1

**Query** Given the compound COc1cc(NC(=O)CCN2CCC(OC(=O)Nc3ccccc3-c3ccccc3)CC2)c(Cl)cc1CNC[C@H](O)c1ccc(O)c2[nH]c(=O)ccc12 [BATEFENTEROL] , what is its reported Population Tubulin-Different-Phenotype (%)?
**Result** 44

**Query** Given the compound Cc1ccccc1C(=O)Nc1ccc(C(=O)N2CCCC(N(C)C)c3ccccc32)cc1.Cl (stereo not drawn) , what is its reported Population Tubulin-Different-Phenotype (%)?
**Result** 6

**Query** Given the compound COc1cc(C(=O)N(CCCc2ccccc2)Cc2ccc(CC(=O)O)cc2)cc(OC)c1C , what is its reported Population Tubulin-Different-Phenotype (%)?
**Result** 3

**Query** Given the compound Cc1nc2ccc(Oc3ccc(F)cc3)cc2c(=O)n1C[C@H]1CCCN(C(C)C)C1.Cl , what is its reported Population Tubulin-Different-Phenotype (%)?
**Result** 47

**Query** Given the compound C[C@H](NC(=O)c1c(C(F)F)nn(C)c1Oc1cccc(C(F)(F)F)c1)c1ccc(C(=O)O)cc1 [PALUPIPRANT] , what is its reported Population Tubulin-Different-Phenotype (%)?
**Result** 1

**Query** Given the compound O=C1COc2nccc(-c3ccccc3F)c2CN1Cc1cc(C(F)(F)F)cc(C(F)(F)F)c1 , what is its reported Population Tubulin-Different-Phenotype (%)?
**Result** 17

**Query** Given the compound COc1c(C)cc(NC(=O)c2nn(Cc3ccc(F)cc3)c3c2CN(C(=O)c2ccc[nH]2)C[C@]3(C)C(N)=O)cc1C , what is its reported Population Tubulin-Different-Phenotype (%)?
**Result** 94

**Query** Given the compound N[C@@]1(C(=O)O)CO[C@H]2[C@H](C(=O)O)[C@H]21 [LY-379268] , what is its reported Population Tubulin-Different-Phenotype (%)?
**Result** 2

**Query** Given the compound N#Cc1c(N)nc(SCc2csc(-c3ccc(Cl)cc3)n2)c(C#N)c1-c1ccc(OCCO)cc1 [CAPADENOSON] , what is its reported Population Tubulin-Different-Phenotype (%)?
**Result** 47

**Query** Given the compound CCCC(CCC)C(=O)O [VALPROIC ACID] , what is its reported Population Tubulin-Different-Phenotype (%)?
**Result** 3

**Query** Given the compound CCCN1CCC[C@@H]2Cc3n[nH]cc3C[C@H]21.Cl [QUINPIROLE HYDROCHLORIDE] , what is its reported Population Tubulin-Different-Phenotype (%)?
**Result** 1

====

Test system: U2OS
Test: Multiplex assay against U2OS
Type: toxicity, cell-based
Settings: human, 48 h, 10 µM, compound concentration 10 uM, replicate 2
property_label: Population Mitochondria Different-Phenotype (%)
Give your result in % as a bare value.

**Query** Given the molecule CCCN1CCC[C@@H]2Cc3n[nH]cc3C[C@H]21.Cl [QUINPIROLE HYDROCHLORIDE] , what is its reported Population Mitochondria Different-Phenotype (%)?
**Result** 4

**Query** Given the molecule C[C@@H]1C[C@H]2[C@@H]3CCC4=CC(=O)C=C[C@]4(C)[C@@]3(F)[C@@H](O)C[C@]2(C)[C@@]1(O)C(=O)CO , what is its reported Population Mitochondria Different-Phenotype (%)?
**Result** 0

**Query** Given the molecule CCOc1c2c(c(OCC)c3ncccc13)CN(c1ccc(CS(=O)(=O)NC(=O)Cc3ccccc3OC)cc1C)C2=O , what is its reported Population Mitochondria Different-Phenotype (%)?
**Result** 4

**Query** Given the molecule CC1(COc2ccc3c(c2)ncn3-c2ccc3cccc(N4CCC(N)CC4)c3n2)COC1 , what is its reported Population Mitochondria Different-Phenotype (%)?
**Result** 35

**Query** Given the molecule Cc1ccc(F)cc1C(=O)Nc1ccc(C(=O)N2Cc3cccn3Cc3ccccc32)c(Cl)c1 , what is its reported Population Mitochondria Different-Phenotype (%)?
**Result** 52

**Query** Given the molecule COc1ccc2c(c1)C(C(=O)N(Cc1ccc(N(C)C)cc1)c1ccc(C(C)C)cc1)CCC2.Cl (stereo not drawn) , what is its reported Population Mitochondria Different-Phenotype (%)?
**Result** 36

**Query** Given the molecule Cl.Clc1ccc2nsnc2c1NC1=NCCN1 [TIZANIDINE HYDROCHLORIDE] , what is its reported Population Mitochondria Different-Phenotype (%)?
**Result** 5

**Query** Given the molecule CN1CCN(c2nc3cc(C(F)(F)F)ccc3n3cccc23)CC1.O=C(O)/C=C\C(=O)O.O=C(O)/C=C\C(=O)O , what is its reported Population Mitochondria Different-Phenotype (%)?
**Result** 16

====

Tested on: U2OS
Assay: Multiplex assay against U2OS
Format: toxicity, cell-based
Settings: human, 48 h, 1 µM, compound concentration 1 uM, replicate 1
Binary call on Population Mitochondria Different-Phenotype (%) with cut-off 5%: strictly below means yes, and equality or higher means no.

**Query** Could you please tell me whether Population Mitochondria Different-Phenotype (%) recorded for Oc1c(CN2CCN(c3ccccn3)CC2)cc(Cl)c2cccnc12 is less than 5%?
**Result** yes

**Query** Could you please tell me whether Population Mitochondria Different-Phenotype (%) recorded for C[C@@H]1C[C@H]2[C@@H]3CCC4=CC(=O)C=C[C@]4(C)[C@@]3(F)[C@@H](O)C[C@]2(C)[C@@]1(O)C(=O)CO is less than 5%?
**Result** yes

**Query** Could you please tell me whether Population Mitochondria Different-Phenotype (%) recorded for CN1CCN2c3ncccc3Cc3ccccc3C2C1 (stereo unspecified) is less than 5%?
**Result** yes

**Query** Could you please tell me whether Population Mitochondria Different-Phenotype (%) recorded for C[C@H]1[C@H]2CC[C@H]3[C@@H]4CC=C5C[C@@H](N(C)C)CC[C@]5(C)[C@H]4CC[C@]23CN1C is less than 5%?
**Result** yes

**Query** Could you please tell me whether Population Mitochondria Different-Phenotype (%) recorded for CSc1ccccc1N1CCN(CCCCCC(=O)NC2CCCc3ccccc32)CC1.Cl (stereo unspecified) is less than 5%?
**Result** no

**Query** Could you please tell me whether Population Mitochondria Different-Phenotype (%) recorded for CC1(COc2ccc3c(c2)ncn3-c2ccc3cccc(N4CCC(N)CC4)c3n2)COC1 is less than 5%?
**Result** no

**Query** Could you please tell me whether Population Mitochondria Different-Phenotype (%) recorded for CC[C@H]1OC(=O)[C@H](C)[C@@H](O[C@H]2C[C@@](C)(OC)[C@@H](O)[C@H](C)O2)[C@H](C)[C@@H](O[C@@H]2O[C@H](C)C[C@H](N(C)C)[C@H]2O)[C@@]2(C)CC(C)=C(O2)[C@H](C)[C@@H](O)[C@]1(C)O is less than 5%?
**Result** no

**Query** Could you please tell me whether Population Mitochondria Different-Phenotype (%) recorded for CN1CCN(c2nc3cc(C(F)(F)F)ccc3n3cccc23)CC1.O=C(O)/C=C\C(=O)O.O=C(O)/C=C\C(=O)O is less than 5%?
**Result** yes

**Query** Could you please tell me whether Population Mitochondria Different-Phenotype (%) recorded for N#Cc1c(N)nc(SCc2csc(-c3ccc(Cl)cc3)n2)c(C#N)c1-c1ccc(OCCO)cc1 is less than 5%?
**Result** no
